Reported pIC50 values follow for various compounds
# TARGET OR SYSTEM: UniProt P61073
# Sequence (P61073 whole entry): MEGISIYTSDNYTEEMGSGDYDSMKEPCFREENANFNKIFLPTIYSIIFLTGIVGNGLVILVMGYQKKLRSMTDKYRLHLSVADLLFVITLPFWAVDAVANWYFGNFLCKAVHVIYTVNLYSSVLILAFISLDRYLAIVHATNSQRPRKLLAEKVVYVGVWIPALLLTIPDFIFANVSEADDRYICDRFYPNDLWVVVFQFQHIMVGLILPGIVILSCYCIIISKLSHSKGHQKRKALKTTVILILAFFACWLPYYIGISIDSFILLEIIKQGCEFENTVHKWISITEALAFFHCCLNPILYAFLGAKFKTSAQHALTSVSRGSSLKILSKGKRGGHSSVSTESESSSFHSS
# ASSAY OVERVIEW: Determination of IC50: competition with 125I-Fc-131 on CXCR4-positive Jurkat cells;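 also: test compound at 10^−5 to 10^−11 M competed for 2 h at 8 °C with the radioligand on 400,000 cells per well, bound versus free activity measured by γ-counting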
# Assay type: binding
# Design: CXCR4-positive Jurkat T lymphocyte cells were grown in Gibco's RPMI 1640 GlutaMAX medium; endogenous in cells; host or cells: Jurkat T lymphocyte cells (whole cells in suspension, 400.000 per tube)
Positions of bridges follow the written chain, without caps; N, C: chain ends. Non-standard residues stand in square brackets, D forms with d. Residues, ends and D or L forms follow the SMILES beside them. Groups on a side chain read outwards from the residue. Chains are numbered I, II in the order given. *: point of attachment. DOTA = O=C(O)CN1CCN(CC(=O)O)CCN(CC(=O)*)CCN(CC(=O)O)CC1; dTyr(3-I) = N[C@H](Cc1ccc(O)c(I)c1)C(=O)O; 2Nal = N[C@@H](Cc1ccc2ccccc2c1)C(=O)O; dNMeOrn = CN[C@H](CCCN)C(=O)O; 4Amb = NCc1ccc(C(=O)O)cc1; Mercaptoacetyl = O=C(CS)*; 4Abz = Nc1ccc(C(=O)O)cc1; dDap = NC[C@@H](N)C(=O)O
Hey, just a heads up that pIC50 is the negative log base 10 of the concentration in molar.

Prompt line: Which pIC50 is listed for C[C@@H](NC(=O)[C@@H](CCCNC(=N)N)NC(=O)[C@@H](CCCNC(=N)N)NC(=O)[C@@H](CO)NC(=O)[C@@H](CO)NC(=O)[C@@H](CO)NC(=O)CS)C(=O)Nc1ccc(C(=O)NCCC[C@@H]2C(=O)N[C@@H](CCCNC(=N)N)C(=O)N[C@@H](Cc3ccc4ccccc4c3)C(=O)NCC(=O)N[C@H](Cc3ccc(O)cc3)C(=O)N2C)cc1 [Tc-CXCR4-3] (I: Mercaptoacetyl-[dS][dS][dS][dR][dR][dA][4Abz] / II: cyclo([dY][dNMeOrn]R[2Nal]G); amide I:C-II:2) ?
Response line: 6.74

Next, consider the following compound.
Prompt line: Look up pIC50 for this compound: C[C@@H](NC(=O)[C@@H](CCCNC(=N)N)NC(=O)[C@@H](CN)NC(=O)CN1CCN(CC(=O)O)CCN(CC(=O)O)CCN(CC(=O)O)CC1)C(=O)NCc1ccc(C(=O)NCCC[C@@H]2C(=O)N[C@@H](CCCNC(=N)N)C(=O)N[C@@H](Cc3ccc4ccccc4c3)C(=O)NCC(=O)N[C@H](Cc3ccc(O)c(I)c3)C(=O)N2C)cc1 [CXCR4-DOTA-2] (cyclo([dTyr(3-I)][dNMeOrn]([4Amb-dA-dR-dDap-DOTA])R[2Nal]G))
Response line: 8.15
